# experimental-conditions: 25 °C
experimental-readout: solubility (µM)
Your answer should be a plain number; it is taken to be in µM.

Answered examples (5):
molecule	solubility, µM
CCc1ccc(C)cc1	790
Clc1cc(Cl)c(Cl)c(-c2c(Cl)ccc(Cl)c2Cl)c1	0.0151
Clc1ccccc1-c1ccc(Cl)c(Cl)c1Cl	0.148
Clc1ccccc1-c1c(Cl)cccc1Cl	1.26
Clc1ccc(-c2c(Cl)cccc2Cl)cc1	0.617

Form: molecule = CCCCCCN ; solubility = 119000

Form: molecule = CCOCCOCC ; solubility = 708000

Form: molecule = Clc1cc(Cl)c(-c2c(Cl)ccc(Cl)c2Cl)cc1Cl ; solubility = 0.0117

Form: molecule = CCCC[N+](=O)[O-] ; solubility = 44600

Form: molecule = Clc1cccc(-c2ccccc2)c1Cl ; solubility = 4.47

Form: molecule = CC(=O)Nc1ccccc1[N+](=O)[O-] ; solubility = 12300

Form: molecule = Clc1ccc(Cl)c(-c2ccccc2)c1Cl ; solubility = 0.323

Form: molecule = Clc1ccc(-c2ccc(Cl)c(Cl)c2Cl)c(Cl)c1 ; solubility = 0.024

# credit: the OPERA property sets (Mansouri et al. 2018)
